The values you see were collected from patent US4748161A.

# measurement_notes: Body weight of rats in method B
# Parameters: species or system male Wistar strain rats
# condition_details: rat, in vivo
assay_metric: Body weight just before blood sampling, 29th day (g)
Please give a number only; it is taken to be in g.

As a guide, the following entries are already answered.
compound: COc1cc(C=C(C)C(=O)OC2CCC34CC35CCC3(C)C(C(C)CCC=C(C)C)CCC3(C)C5CCC4C2(C)C)ccc1O (stereo not shown)
endpoint_value: 265
--
compound: CCC(=Cc1ccc(O)cc1)C(=O)OC1CCC23CC24CCC2(C)C(C(C)CCC=C(C)C)CCC2(C)C4CCC3C1(C)C (stereo not shown)
endpoint_value: 258
--
compound: C=C(CCC(C)C1CCC2(C)C3CCC4C(C)(C)C(OC(=O)C(C)=Cc5cc(N)ccc5OCCC)CCC45CC35CCC12C)C(C)C (stereo not shown)
endpoint_value: 257
--
compound: C=C(CCC(C)C1CCC2(C)C3CCC4C(C)(C)C(OC(=O)C(C)=Cc5ccc(O)c(OC)c5)CCC45CC35CCC12C)C(C)C (stereo not shown)
endpoint_value: 259
--
compound: COc1ccc(N)cc1C(=O)OC1CCC23CC24CCC2(C)C(C(C)CCC(C)=C(C)C)CCC2(C)C4CCC3C1(C)C (stereo not shown)
endpoint_value: 258

[in] // Input: COc1cc(C=C(C)C(=O)OC2CCC34CC35CCC3(C)C(C(C)CCC=C(C)C)CCC3(C)C5CCC4C2(C)C)ccc1N (stereo not shown) . Output its Body weight just before blood sampling, 29th day only.
[out] 256

----------
The following compounds are shown together with reported AI Diff. values.
# Test system: serum lipids and serum lipid hydroperoxide
# measurement_notes: Pharmacological test method B for anti-hyperlipidemic activity (serum lipids, 4 weeks feeding)
# Assay type: in vivo, male Wistar strain rats
# Design: unit not given here
# condition_details: versus control group

Consider the worked cases shown below.
compound: C=C(CCC(C)C1CCC2(C)C3CCC4C(C)(C)C(OC(=O)C(C)=Cc5cccc(N)c5)CCC45CC35CCC12C)C(C)C (stereo not shown)
AI Diff.: -23.38
--
compound: CCCOc1cc(C=C(C)C(=O)OC2CCC34CC35CCC3(C)C(C(C)CCC=C(C)C)CCC3(C)C5CCC4C2(C)C)ccc1O (stereo not shown)
AI Diff.: -14.28
--
compound: COc1ccc(N)cc1C(=O)OC1CCC23CC24CCC2(C)C(C(C)CCC=C(C)C)CCC2(C)C4CCC3C1(C)C (stereo not shown)
AI Diff.: -18.02

# next compound below
[in] Name the recorded AI Diff. of the item CCCOc1ccc(N)cc1C=C(C)C(=O)OC1CCC23CC24CCC2(C)C(C(C)CCC=C(C)C)CCC2(C)C4CCC3C1(C)C (stereo not shown) in your answer.
[out] -22.22

----------
# measurement_notes: Body weight of rats in method B
# Design: species or system male Wistar strain rats
# condition_details: rat, in vivo
assay_metric: Body weight during feed period, 1st day (g)
Just the number please, in g, no unit attached.

Completed entries (count: 5):
compound: C=C(CCC(C)C1CCC2(C)C3CCC4C(C)(C)C(OC(=O)C(C)=Cc5ccc(N)c(OC)c5)CCC45CC35CCC12C)C(C)C (stereo not drawn) [Example 191]
unit_label: g
Body weight during feed period, 1st day: 104

compound: COc1cc(C=C(C)C(=O)OC2CCC34CC35CCC3(C)C(C(C)CCC=C(C)C)CCC3(C)C5CCC4C2(C)C)ccc1O (stereo not drawn) [Example 114]
unit_label: g
Body weight during feed period, 1st day: 105

compound: CCCOc1cc(C=C(C)C(=O)OC2CCC34CC35CCC3(C)C(C(C)CCC=C(C)C)CCC3(C)C5CCC4C2(C)C)ccc1O (stereo not drawn) [Example 146]
unit_label: g
Body weight during feed period, 1st day: 106

compound: C=C(CCC(C)C1CCC2(C)C3CCC4C(C)(C)C(OC(=O)C(C)=Cc5ccc(O)c(OC)c5)CCC45CC35CCC12C)C(C)C (stereo not drawn) [Example 118]
unit_label: g
Body weight during feed period, 1st day: 106

compound: CCOc1cc(C=C(C)C(=O)OC2CCC34CC35CCC3(C)C(C(C)CCC(C)=C(C)C)CCC3(C)C5CCC4C2(C)C)ccc1O (stereo not drawn) [Example 140]
unit_label: g
Body weight during feed period, 1st day: 105

Next, consider the following compound.
[in] Please report the measured Body weight during feed period, 1st day for COc1ccc(N)cc1C(=O)OC1CCC23CC24CCC2(C)C(C(C)CCC(C)=C(C)C)CCC2(C)C4CCC3C1(C)C (stereo not drawn) [Example 173]
[out] 105

----------
# Tested on: serum lipids and serum lipid hydroperoxide
# measurement_notes: Pharmacological test method B for anti-hyperlipidemic activity (serum lipids, 4 weeks feeding)
# Format: in vivo, male Wistar strain rats
# condition_details: 1% in hyperlipidemic diet, 4 weeks
Listing of entries alongside the reported TG in serum.
I only need the number, in mg/dL, no unit after it.

Answered examples (5):
molecule: COc1cc(C=C(C)C(=O)OC2CCC34CC35CCC3(C)C(C(C)CCC=C(C)C)CCC3(C)C5CCC4C2(C)C)ccc1N (stereo not drawn)
assay_metric: TG in serum
unit_label: mg/dL
endpoint_value: 58.4
//
molecule: CCOc1ccc(N)cc1C=CC(=O)OC1CCC23CC24CCC2(C)C(C(C)CCC=C(C)C)CCC2(C)C4CCC3C1(C)C (stereo not drawn)
assay_metric: TG in serum
unit_label: mg/dL
endpoint_value: 65.2
//
molecule: COc1ccc(N)cc1C(=O)OC1CCC23CC24CCC2(C)C(C(C)CCC(C)=C(C)C)CCC2(C)C4CCC3C1(C)C (stereo not drawn)
assay_metric: TG in serum
unit_label: mg/dL
endpoint_value: 65.2
//
molecule: COc1cc(C(=O)OC2CCC34CC35CCC3(C)C(C(C)CCC=C(C)C)CCC3(C)C5CCC4C2(C)C)ccc1N (stereo not drawn)
assay_metric: TG in serum
unit_label: mg/dL
endpoint_value: 67.1
//
molecule: CCCOc1cc(C=C(C)C(=O)OC2CCC34CC35CCC3(C)C(C(C)CCC=C(C)C)CCC3(C)C5CCC4C2(C)C)ccc1O (stereo not drawn)
assay_metric: TG in serum
unit_label: mg/dL
endpoint_value: 51.4

[in] # return recorded TG in serum for input CCC(=Cc1ccc(O)c(OC)c1)C(=O)OC1CCC23CC24CCC2(C)C(C(C)CCC=C(C)C)CCC2(C)C4CCC3C1(C)C (stereo not drawn)
[out] 53.0

----------
# measurement_notes: Body weight of rats in method B
# Parameters: species or system male Wistar strain rats
# condition_details: rat, in vivo
assay_metric: Body weight just before blood sampling, 29th day (g)
The reply should be a number in g, with the unit left off.

compound: COc1cc(C=CC(=O)OC2CCC34CC35CCC3(C)C(C(C)CCC=C(C)C)CCC3(C)C5CCC4C2(C)C)ccc1N (stereo not shown)
endpoint_value: 256
//
compound: COc1cc(C=C(C)C(=O)OC2CCC34CC35CCC3(C)C(C(C)CCC(C)=C(C)C)CCC3(C)C5CCC4C2(C)C)ccc1O (stereo not shown)
endpoint_value: 260
//
compound: CC(C)=CCCC(C)C1CCC2(C)C3CCC4C(C)(C)C(OC(=O)C(C)=Cc5ccc(N)cc5)CCC45CC35CCC12C (stereo not shown)
endpoint_value: 256

Could you now consider this next compound?
[in] Entry CCOc1cc(C=C(C)C(=O)OC2CCC34CC35CCC3(C)C(C(C)CCC(C)=C(C)C)CCC3(C)C5CCC4C2(C)C)ccc1O (stereo not shown) needs its Body weight just before blood sampling, 29th day filled in; supply it.
[out] 261
